I'd be grateful if you could share measured inhibition for these entries.
target: Hexose transporter 1 (Plasmodium falciparum); assay: ST_JUDE_LEISH: Cytotoxicity at 2uM final concentration against transgenic Leishmania Mexicana promastigotes LmPfHT that are glucose transport deficient and complemented with the Plasmodium falciparum hexose transporter. Activity is measured by DNA content using SYBR green in vitro; assay type: functional
Give bare numbers, in %.

Consider the worked cases shown below.
Report its inhibition with Hexose transporter 1 (Plasmodium falciparum) as the test system: `CO/C(=C/C=C/c1cc2cc(Cl)c(Cl)cc2[nH]1)C(=O)NC1CC(C)(C)N(C)C(C)(C)C1`
0.74

Report its inhibition with Hexose transporter 1 (Plasmodium falciparum) as the test system: `O=C(Nc1cccc(CN2CCCN(Cc3ccc(O)cc3)CC2)c1)c1ccc(Cl)c(Cl)c1`
11

Report its inhibition with Hexose transporter 1 (Plasmodium falciparum) as the test system: CC1CCC(NCc2c(O)ccc3ccccc23)CC1 (stereo not given)
1.89

Each molecule below has a recorded value; state its inhibition.
1. CN(C)CCNC(=O)c1cccc(-c2cnc3ccc(NCc4ccc(Cl)c(Cl)c4)nn23)c1
2. CC(C)N1CCN(C(CN2CCN(CCCOc3cccc(-c4ccccc4)c3)CC2)c2ccc(F)cc2)CC1 (stereo not given)
3. CN1CCc2ccc(NC(=O)Nc3cccc([N+](=O)[O-])c3)cc2C1

1: 8.99; 2: 2.77; 3: 0.7
